Molecular target: UniProt:Q9UQB9
Sequence (Q9UQB9 1-309): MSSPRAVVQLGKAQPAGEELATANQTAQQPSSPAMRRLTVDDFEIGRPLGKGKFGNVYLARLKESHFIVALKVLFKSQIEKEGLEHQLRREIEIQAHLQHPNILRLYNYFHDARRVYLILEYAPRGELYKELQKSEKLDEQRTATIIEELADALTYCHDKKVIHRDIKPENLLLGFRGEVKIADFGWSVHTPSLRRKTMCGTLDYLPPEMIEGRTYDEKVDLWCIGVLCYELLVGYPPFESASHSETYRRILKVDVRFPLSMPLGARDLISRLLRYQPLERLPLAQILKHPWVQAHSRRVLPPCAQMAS
Test: Further analysis of a plurality of inhibitors and a plurality of kinases on microarray (Example IX, Table 5);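 note: inhibition of each kinase by the inhibitors is given as a qualitative level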;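 note: level 0 no or unclear inhibition to Level 2 substantial inhibition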
Type: biochemical
Details: plate G11; inhibitor 100 uM
Overview of recorded Inhibition level, STK13 for various molecules
Provide a numeric answer; units are not to be included.

Molecule: COc1cc2ncnc(Nc3cccc(Cl)c3)c2cc1OC [AG 1478]
Reported metric: Inhibition level, STK13
Measured value: 1
//
Molecule: O=c1c(O)c(-c2ccc(O)c(O)c2)oc2cc(O)cc(O)c12 [Quercetin]
Reported metric: Inhibition level, STK13
Measured value: 2
//
Molecule: O=S(=O)(NCCNC/C=C/c1ccc(Br)cc1)c1cccc2cnccc12 [H-89]
Reported metric: Inhibition level, STK13
Measured value: 1
//
Molecule: O=c1c(-c2ccc(O)cc2)coc2cc(O)cc(O)c12 [Genistein]
Reported metric: Inhibition level, STK13
Measured value: 2
//
Molecule: CC(=O)c1c(O)c(C)c(O)c(Cc2c(O)c3c(c(C(=O)/C=C/c4ccccc4)c2O)OC(C)(C)C=C3)c1O [Rottlerin (Mallotoxin)]
Reported metric: Inhibition level, STK13
Measured value: 1
//
Molecule: Cn1cc(C2=C(c3cn(CCCSC(=N)N)c4ccccc34)C(=O)NC2=O)c2ccccc21 [Ro-31-8220]
Reported metric: Inhibition level, STK13
Measured value: 2
//
Molecule: CC(C)(C)n1nc(-c2ccc(Cl)cc2)c2c(N)ncnc21 [PP2]
Reported metric: Inhibition level, STK13
Measured value: 2

Record N#C/C(=C/c1ccc(O)c(O)c1)C(=O)NCc1ccccc1 [AG 490] . Reported Inhibition level, STK13: 2
